system.tested: 20S proteasome (Oryctolagus cuniculus)
experimental.details: Inhibition of the 20S proteasome peptidase activity (kinetic experiments)
Assay type: biochemical, Rabbit
measurement.conditions: Rabbit muscle, SDS-activated, substrate Suc-LLVY-AMC; read-out: Ki 20S
Non-standard residues stand in square brackets, D forms with d. Residues, ends and D or L forms follow the SMILES beside them. *: point of attachment. 1Nal = N[C@@H](Cc1cccc2ccccc12)C(=O)O; Nva = CCC[C@H](N)C(=O)O; Cbz = O=C(OCc1ccccc1)*; Boc = CC(C)(C)OC(=O)*
Some compounds, each annotated with its measured Ki.
For clarity, give the value followed by its unit.

Example cases with answers are listed next.
| compound | Ki |
| --- | --- |
| CCC[C@@H](C=O)NC(=O)[C@H](CC(C)C)NC(=O)[C@H](Cc1cccc2ccccc12)NC(=O)OCc1ccccc1 [MG 142] (Cbz-[1Nal]-Leu-[Nva]-aldehyde) | 0.2 nM |
| CC(C)C[C@H](NC(=O)OCc1ccccc1)C(=O)N[C@@H](CC(C)C)C(=O)N[C@H](C=O)Cc1ccc(O)cc1 [MG 131] (Cbz-Leu-Leu-Tyr-aldehyde) | 7 nM |

Task item: Return reported Ki. Input compound: CC(C)C[C@@H](C=O)NC(=O)[C@H](CC(C)C)NC(=O)[C@H](CC(C)C)NC(=O)OC(C)(C)C [MG 155] (Boc-Leu-Leu-Leu-aldehyde)
Reply: 47 nM

----------
system.tested: 20S proteasome (Oryctolagus cuniculus)
Sequence (G1T4Q9 60-263): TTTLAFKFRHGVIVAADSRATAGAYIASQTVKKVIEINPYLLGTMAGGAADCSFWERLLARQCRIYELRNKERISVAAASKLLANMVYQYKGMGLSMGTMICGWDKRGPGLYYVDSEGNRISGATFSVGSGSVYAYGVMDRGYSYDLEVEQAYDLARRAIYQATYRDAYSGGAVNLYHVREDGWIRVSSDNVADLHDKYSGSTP
Sequence (G1SU71 1-241 partner): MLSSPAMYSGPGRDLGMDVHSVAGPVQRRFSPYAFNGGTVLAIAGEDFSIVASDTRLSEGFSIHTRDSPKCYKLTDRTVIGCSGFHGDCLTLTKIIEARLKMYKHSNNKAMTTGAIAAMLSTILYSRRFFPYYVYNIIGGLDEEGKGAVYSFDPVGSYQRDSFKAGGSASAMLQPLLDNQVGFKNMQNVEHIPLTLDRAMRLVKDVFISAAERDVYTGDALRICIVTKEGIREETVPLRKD
experimental.details: Inhibition of the 20S proteasome peptidase activity (kinetic experiments)
Type: biochemical, Rabbit
measurement.conditions: both latent and active forms of 20S proteasome; read-out: Ki, peptidase activities of 20S proteasome
pKi: −log10 of the molar value. Non-standard residues stand in square brackets, D forms with d. Residues, ends and D or L forms follow the SMILES beside them. Nle = CCCC[C@H](N)C(=O)O
property: pKi

Task item: Look up and report pKi, with 20S proteasome (Oryctolagus cuniculus) as system, for CCCC[C@@H](C=O)NC(=O)[C@H](CC(C)C)NC(=O)[C@H](CC(C)C)NC(C)=O [MG 101, Ac-Leu-Leu-Nle-H] (Ac-Leu-Leu-[Nle]-aldehyde)
Reply: 5.15 to 6.85

----------
system.tested: 20S proteasome (Oryctolagus cuniculus, UniProt G1T4Q9)
experimental.details: Inhibition of the 20S proteasome peptidase activity (kinetic experiments)
Assay type: biochemical, Rabbit
measurement.conditions: Rabbit muscle, SDS-activated, substrate Suc-LLVY-AMC; read-out: Ki 20S
Non-standard residues stand in square brackets, D forms with d. Residues, ends and D or L forms follow the SMILES beside them. ξ: configuration not given here. *: point of attachment. 2Nal = N[CH](Cc1ccc2ccccc2c1)C(=O)O; Cha = N[C@@H](CC1CCCCC1)C(=O)O; Ile(3ξ) = CCC(C)[C@H](N)C(=O)O; Cbz = O=C(OCc1ccccc1)*; Bn = c1ccc(C*)cc1
Some compounds, each annotated with its measured Ki.
Give the number; nM is assumed, so skip it.

Example cases with answers are listed next.
| compound | system.tested | property | value |
| --- | --- | --- | --- |
| CC(C)C[C@@H](C=O)NC(=O)[C@H](CC(C)C)NC(=O)[C@H](CC(C)C)NC(=O)OCc1ccccc1 [MG 132] (Cbz-Leu-Leu-Leu-aldehyde) | 20S proteasome (Oryctolagus cuniculus, UniProt G1T4Q9) | Ki | 4 |
| CCC(C)[C@@H](C=O)NC(=O)[C@H](CC(C)C)NC(=O)[C@H](CC(C)C)NC(=O)OCc1ccccc1 (stereo partly drawn) [MG 134] (Cbz-Leu-Leu-[Ile(3ξ)]-aldehyde) | 20S proteasome (Oryctolagus cuniculus, UniProt G1T4Q9) | Ki | 104 |
| CC(C)C[C@H](NC(=O)OCc1ccccc1)C(=O)N[C@@H](CC(C)C)C(=O)N[C@H](C=O)CC1CCCCC1 [MG 129] (Cbz-Leu-Leu-[Cha]-aldehyde) | 20S proteasome (Oryctolagus cuniculus, UniProt G1T4Q9) | Ki | 74 |
| CC(C)C[C@H](NC(=O)OCc1ccccc1)C(=O)N[C@@H](CC(C)C)C(=O)N[C@H](C=O)Cc1ccc(OCc2ccccc2)cc1 [MG 153] (Cbz-Leu-Leu-Tyr(Bn)-aldehyde) | 20S proteasome (Oryctolagus cuniculus, UniProt G1T4Q9) | Ki | 285 |

Pending compound:
Task item: Return reported Ki. Input compound: CC(C)CC(C=O)NC(=O)C(Cc1ccc2ccccc2c1)NC(=O)OCc1ccccc1 (stereo not drawn) [MG 279, Z-Nal-Leu-H] (Cbz-[2Nal]-Leu-aldehyde; configuration not given here)
Reply: 24
